# System: intracellular proteome of ENR+CD and ENR organoids
# assay: LC-MS/MS TMT proteomics of ENR+CD versus ENR organoids
# Type: cell-based, C57BL/6 mice
# test_context: up = enriched in ENR+CD, down = enriched in ENR; FDR<0.05 and log fold change cut-off
measured_quantity: change

P40338 (protein, UniProt P40338 1-181, looked up, full-length) MPRKAASPEEAAGEPGPEEMEAGRPRPVLRSVNSREPSQVIFCNRSPRVVLPLWLNFDGEPQPYPILPPGTGRRIHSYRGHLWLFRDAGTHDGLLVNQTELFVPSLNVDGQPIFANITLPVYTLKERCLQVVRSLVKPENYRRLDIVRSLYEDLEDYPSVRKDIQRLSQEHLESQHLEEEP = down
O70126 (protein, UniProt O70126 1-345, looked up, full-length) MAQKENAYPWPYGSKTSQSGLNTLSQRVLRKEPATTSALALVNRFNSQSTAAPGQKLAENKSQGSTASQGSQNKQPFTIDNFEIGRPLGKGKFGNVYLAREKKSRFIVALKILFKSQIEKEGVEHQLRREIEIQAHLKHPNILQLYNYFYDQQRIYLILEYAPRGELYKELQKSRTFDEQRTATIMEELSDALTYCHKKKVIHRDIKPENLLLGLQGELKIADFGWSVHAPSLRRKTMCGTLDYLPPEMIEGRMHNEMVDLWCIGVLCYELMVGNPPFESPSHSETYRRIVKVDLKFPSSVPSGAQDLISKLLKHNPWQRLPLAEVAAHPWVRANSRRVLPPSAL = down
